B1: NF2 (merlin) isoform 7, human, full length (507 aa, lacks exons 2-3 = isoform-1 residues 39-121; exon-16 C-terminus), P35240-4 (parent)
chain: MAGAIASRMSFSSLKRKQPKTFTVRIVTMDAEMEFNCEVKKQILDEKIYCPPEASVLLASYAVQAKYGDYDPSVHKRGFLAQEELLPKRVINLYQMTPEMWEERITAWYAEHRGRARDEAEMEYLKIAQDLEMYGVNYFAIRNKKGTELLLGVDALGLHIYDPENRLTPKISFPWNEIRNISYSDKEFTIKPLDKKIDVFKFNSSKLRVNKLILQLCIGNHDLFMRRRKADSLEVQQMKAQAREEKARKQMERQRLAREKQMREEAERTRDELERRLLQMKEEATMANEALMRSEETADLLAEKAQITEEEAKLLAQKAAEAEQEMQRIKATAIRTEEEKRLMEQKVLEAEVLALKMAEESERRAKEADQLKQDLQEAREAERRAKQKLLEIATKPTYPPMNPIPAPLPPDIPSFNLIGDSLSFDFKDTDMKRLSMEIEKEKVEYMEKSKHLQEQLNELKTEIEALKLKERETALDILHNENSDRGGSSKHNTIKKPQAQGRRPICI

Variants of: B1
experimentalDetails: reverse yeast two-hybrid deep mutational scan (rY2H-seq): NF2 isoform 7 mutant library as bait mated with wild-type prey strains; selection on medium lacking adenine for non-interacting pairs; NextSeq paired-end sequencing; enrichment vs …
measurementSetup: with NF2 C-terminal domain (wild type; homomeric NF2-NF2 interaction), P35240; yeast diploids after mating (RBait_S3 x RPrey_S3), 30 °C, selection for reporter genes on NB agar; human ABL2 co-expressed as the kinase-dead K35M mutant …; HIGHER = WEAKER BINDING (the opposite of display enrichments): higher = stronger loss of interaction: reverse Y2H selects yeast in which bait and prey do NOT interact (growth without adenine), so a …; hits-only table; partner unresolved; scale: rY2H score; numbering: uniprot, sequence starts at 1
Classification field: Fulfilled = enrichment at or over 2; Not fulfilled = enrichment under 2.

Consider the following illustrative entries.
| mutationString | classLabel |
| --- | --- |
| S421K | Fulfilled |
| R253K | Not fulfilled |
| R270L | Fulfilled |

Could you tell me if the measured enrichment of `R364E` reaches 2 or more?
Fulfilled

Could you tell me if the measured enrichment of `P497L` reaches 2 or more?
Fulfilled

Could you tell me if the measured enrichment of `E338L` reaches 2 or more?
Fulfilled

Could you tell me if the measured enrichment of `D69L` reaches 2 or more?
Not fulfilled
